tested on: MS2 coat protein; experiment: apparent Kd, MS2 coat protein; higher = weaker binding; RNA-MaP array; FMN 200 µM where present; conditions: ligand present: flavin mononucleotide; designed as: ON switch for flavin mononucleotide
We use 40 nM as the dividing line for apparent Kd: on or above the line is true, below is false.

macromolecule sequence	test system	assigned class
AAAAAACAUGAGGAUCACCCAUGUAAAAAAAUGGGAGGAUAUACAAAAACGAAAGUCAAAGUAGAAGGCCUGAAAA	MS2 coat protein	false
GGUGUGGCAUGAGGAUAUGGUCAGCUUUGCUGACCAGAAGGCAUGUCAAUAGACAUGAGGAUCACCCAUGUAGUUAACACACCA	MS2 coat protein	true
AACACAACAUGAAACAUGAGGAUCACCCAUGUUGUUUGUAAUCAGGAUAUGAUUUUAAUAAUGAAUUAGAAGGGAUAUGGAUUU	MS2 coat protein	false
UGGUACUAGGGAGGAUAUGGGAAGAUACAUGAGGAUCACCCAUGUUUAAGAAUGCCGAGAGACAACUAGAAGGCCCUAGUACCU	MS2 coat protein	false
GGUCCAUCAUGAGGAUAUGGCACCUUAUUGGUGCCAGAAGGCAUGUCUCUUGACAUGAGGAUCACCCAUGUAAUAAAUUGGACC	MS2 coat protein	true
GACAUGAGGAUCACCCAUGUCCAUGCAAGAGUAGUUGAGACCAGAAGGACCUUGCGGAGCGCAGGGUAGGAUAUGGAGCCCUCA	MS2 coat protein	false
AUGAUUAUAUUAUACAUGAGGAUCACCCAUGUUAUAAGUCAUGAGGAUAUGGUAUUGUAGUUUUUCCAGAAGGCAUUUAACUUA	MS2 coat protein	false
AACAUGAGGAUCACCCAUGUCCCACCAGAAGGCUGGCGGUCGUGAGAAAGGCCACGACAAAUAACAGAGGAUAUGGUGAAUGCA	MS2 coat protein	false
UUGGUUGUCGUAGGAUAUGUAGGAUAUUCCUACAUGAGGAUCACCCAUGUUCGCAUGGAAGAAGGACGGAAGGACGAUGACCAU	MS2 coat protein	true
ACUAGAAGCGUGAGAUAUCACAUGAGGAUCACCCAUGUGACACAGGAUAUAACAAUAUCAGAAGGUUAGAAGGGUGAGCACGCC	MS2 coat protein	true
UAAACAUGAGGAUCACCCAUGUUAUGAUCGGUUGAUGAAAGUGAGGAUAUACUUAAUUUUAUGGAGUAGAAGGCACUGGGUUCU	MS2 coat protein	false
GUGGUACAUGAGGAUCACCCAUGUGUGGGCGCAUGAGGAUAUGUCAGUCCCUGAAGUACGAUAGAAGGCAUGGUGA	MS2 coat protein	true
AACAAUCUAUCUGAGGAUAUUAUGAAAUAAACAUGAGGAUCACCCAUGUGCAGGAAAACUGCAUAUGAGAAGGCAGAUAGAUUGA	MS2 coat protein	false
AAGACACAUCUAGGAUAUGGUGAUGCUCAGAACACAUGAGGAUCACCCAUGUAGCUUGUGUAUAAUCAGAAGGAGAACCGUGUA	MS2 coat protein	true

----------
tested on: MS2 coat protein; assay: apparent Kd, MS2 coat protein; higher = weaker binding; RNA-MaP array; FMN 200 µM where present; details: designed as: ON switch for flavin mononucleotide; no ligand
Readings of apparent Kd for the listed sequences

macromolecule sequence	apparent Kd [nM]
AAAUGGAACUAAGGAUAUCUGUAUUUUGUUGAAACAUGAGGAUCACCCAUGUUCAUGAAAUUAUAGGAGAAGGUAGAUCCAUAA	4.51
GAACGUGACAUGAGGAUCACCCAUGUUGCCUUGGCCAGGUCGUAGGAUAUCCUGAUGAUUAAUUUGGAGAAGGGCGACUGGGAG	36.1
AACACAACAUGAAACAUGAGGAUCACCCAUGUUGUUUGUAAUCAGGAUAUGAUUUUAAUAAUGAAUUAGAAGGGAUAUGGAUUU	28.9
UUGAAUCGAAACAUGAGGAUCACCCAUGUGUCGUAGGUAGCAUAGGAUAUGUACAUACUGUUGGGAUAGAAGGAUGAUGAUGCU	8.62
UUGGACGUCGUAGGAUAUGUAGGAUAUUCCUACAUGAGGAUCACCCAUGUUGACAUGGAAGAAGGACAGAAAGACGAUGUCCAU	333
AAGUUUGUACGAGGAUAUCAGUUGUUUCUAAAUUCAACAUGAGGAUCACCCAUGUAGCAAUGGAGUGAGAAGGCGUGUGGGCAA	457
GGUGUGGCAUGAGGAUAUGGUCAGCUUUGCUGACCAGAAGGCAUGUCAAUAGACAUGAGGAUCACCCAUGUAGUUAACACACCA	557
CCGGAAACGGGUAGCCUGACAUGAGGAUCACCCAUGUGAUCAGAGGAUAUGGAUCCUAAUUGGAUCCAGAAGGCUGUUGGCUAC	73.4
GACAUACAUGAGGAUCACCCAUGUUCAGAAGGACAAGGAUAUGUGUGGAAACCAUACUAUACAGAAGGUGUCUGUC	37.6
AAUUAAUUAAUUAAUAUACAUGAGGAUCACCCAUGUAAGAUCAAGGAUAUCAGCUCGAAUAGAGCUGAGAAGGUGAUCACAUGU	533
AUGGAUAUCACAGGAUAUGCCAGGGAUACCCUGGCAGAAGGGUGAUCCAUCCUAUGUAAAUACAUGAGGAUCACCCAUGUGUCC	51.7
ACAUGAGGAUCACCCAUGUUGAAUUAGGAUAUUUGACUGCACAUGAGGUUCACCCAUGUUCUACCGGAGAAGGGAUUAAUAAUU	129
GCCAUCGUAUGAGGAUAUGGCACCGAAACGGUGCCAGAAGGCAUGUCAAUAGACAUGAGGAUCACCCAUGUUUUAUCGAUGGCA	89.7
GGCUCGCAGCUAGGAUAUGGGCGGUCACAUGAGGAUCACCCAUGUCAACAUCAAAACCAGAUUAACCAGAAGGAGCUGCGGGUU	33.5

FYI, the data here is from the EternaBench riboswitch data.
